Target: T1, CRH (NT-Biotin) (human and mouse, not fully specified; biotin at the N-terminus)
T1 construct: also called Biotin-CRH; N-terminally biotinylated corticotropin-releasing hormone
T1 peptide: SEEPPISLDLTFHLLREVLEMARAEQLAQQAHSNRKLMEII
Experiment: ELISA, N-terminally biotinylated CRH on streptavidin-coated plate
propertyLabel: EC50

State, in one line, measured EC50 of PR301777 (antibody, human IgG1, kappa, V domains shown, Mouse variable domains, expressed recombinantly with human IgG1 wildtype Fc; also called Series 5 mAb) VH: EMKLEESGGGLVQPGGSMKLSCVASGFTFSNYWMNWVRQSPEKGLEWVAEIRLKSNNYATHYAESVKGRFTISRDDSKSGVYLQMNNLGAEDTGIYYCTVGTLVYWGQGTLVTVSA VL: DIVLTQSPASLAVSLGQRATISCRASQSVSTSTYNYMHWFQQKPGQPPKLLIKFASNLESGVPARFSGSGSGTDFTLNIHPVEEEDTATFYCQHSWEIPYTFGGGTKLEIKR
0.027 nM

State, in one line, measured EC50 of PR302331 (antibody, human IgG1, kappa, V domains shown, Mouse variable domains, expressed recombinantly with human IgG1 wildtype Fc; also called Series 9 mAb) VH: EVKLVESGGGLVKPGGSLKLSCAASGFTFSSYAMSWVRQSPEKRLEWVASIRSGGTTYYPDSVKGRFTISRDNARNILYLQMSSLRSEDTAIYYCTRGIDWGQGTLVTVSA VL: NIVMTQTPKFLLVSAGDRVTIACKASQSVNNDVAWYQQKPGQSPKLLIYYASNRYTGVPDRFTGSGYGTDFTFTISTVQAEDLAVYFCQQDYSSWTFGGGTKLEIKR
0.016 nM

State, in one line, measured EC50 of PR302334 (antibody, human IgG1, kappa, V domains shown, Mouse variable domains, expressed recombinantly with human IgG1 wildtype Fc; also called Series 9 mAb) VH: EVKLVESGGGLVKPGGSLKLSCAASGFTFSTYAMSWVRQTPEKRLEWVASIRSGGTTYYPDSVKGRFTISRDNARNILYLQMSSLRSEDTAIYYCTRGIDWGQGTLVTVSA VL: NIVMTQTPKFLLVSAGDRITITCKASQSVNNDVAWYQQKPGQSPKLLIYYASNRYTGVPDRFTGSGYGTDFTFTISTVQAEDLAVYFCQQDYSSWTFGGGTNLEIKR
0.026 nM

State, in one line, measured EC50 of PR004289 (antibody, human IgG1, kappa, V domains shown, Expressed recombinantly with human IgG1 wildtype Fc; also called Hybridoma Clone 16g2; Series 1 mAb) VH: EVQLVESGGVLVQPGGSLRLSCAASGFIFSSYWMTWVRQAPGKGLEWVANIKQDGSEKYYVDSVKGRFTISRDNAKNSLFLQMNSLRAEDTAVYYCARTLIFDYWGQGTLVTVSS VL: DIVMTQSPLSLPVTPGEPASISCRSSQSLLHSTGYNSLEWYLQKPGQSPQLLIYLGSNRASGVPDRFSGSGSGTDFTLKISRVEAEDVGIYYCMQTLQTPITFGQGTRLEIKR
0.023 nM

State, in one line, measured EC50 of PR302335 (antibody, human IgG1, kappa, V domains shown, Mouse variable domains, expressed recombinantly with human IgG1 wildtype Fc; also called Series 8 mAb) VH: DVQLVESGGGLVQPGGSRKLSCAASGFTFSSFGMHWVRQAPEKGLEWVAYISSGSTIFYYADTVKGRFTISRDNPKNTLFLQMTSLRSEDTAMYYCARDITTATFAFWGQGTLVTVSA VL: DVVLTQTPLSLPVSLGDQVSISCRSSQNLLHNNGNTYLHWYLQKPGQSPRLLIYKVSNRFSGVPDRFSGSGSGTDFTLKITRVEAEDLGVYFCSQSTHIPWTFGGGTKLEIKR
0.014 nM

State, in one line, measured EC50 of PR004290 (antibody, human IgG1, kappa, V domains shown, Expressed recombinantly with human IgG1 wildtype Fc; also called Hybridoma Clone 28b3; Series 1 mAb) VH: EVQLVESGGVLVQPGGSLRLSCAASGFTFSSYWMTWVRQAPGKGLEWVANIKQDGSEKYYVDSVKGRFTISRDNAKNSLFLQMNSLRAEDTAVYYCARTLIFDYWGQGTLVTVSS VL: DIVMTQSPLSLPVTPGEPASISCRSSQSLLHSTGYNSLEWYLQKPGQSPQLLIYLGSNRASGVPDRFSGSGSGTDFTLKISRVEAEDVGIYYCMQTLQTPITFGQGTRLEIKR
0.029 nM

State, in one line, measured EC50 of PR301790 (antibody, human IgG1, kappa, V domains shown, Mouse variable domains, expressed recombinantly with human IgG1 wildtype Fc; also called Series 5 mAb) VH: EMKLEESGGGLVQPGGSMKLSCVASGFTFSNYWMNWVRQSPEKGLEWVAEIRLKSNNYATHYAESVKGRFTISRDDSKSSVYLQMNNLRAEDTGIYYCTIGTLVYWGQGTLVTVSA VL: DIVLTQSPASLAVSLGQRATISCRASQSVSTSSYNYMHWYQQKPGQPPKLLIKFASNLESGVPARFSGSGSGTDFTLNIHPVEEEDTATFYCQHSWEIPYTFGGGTKLEIKR
0.017 nM

State, in one line, measured EC50 of PR302328 (antibody, human IgG1, kappa, V domains shown, Mouse variable domains, expressed recombinantly with human IgG1 wildtype Fc; also called Series 9 mAb) VH: EVKLVESGGGLVKPGGSLKLSCAASGFTFSSYAMSWVRQTPEKRLEWVASIRSGGTTYYPDSVKGRFTISRDNARNILYLQMSSLRSEDTAIYYCTRGIDWGQGTLVTVSA VL: NIVMTQTPKFLLVSAGDRVTITCKASQSVNNDVAWYQQKPGQSPKLLIYYASNRYTGVPDRFTGSGYGTDFTFTISTVQAEDLAVYFCQQDYSSWTFGGGTKLEIKR
0.043 nM

State, in one line, measured EC50 of PR301806 (antibody, human IgG1, kappa, V domains shown, Mouse variable domains, expressed recombinantly with human IgG1 wildtype Fc; also called Series 6 mAb) VH: QVQLQQPGAELVKPGTSVKMSCKASGYTFTSYWMHWVKQRPGQGLEWIGDIYPGSDSTNYNEKFKSKASLTVDTSSSTAYMQLSSLTSEDSAVYYCARSITTTTFWYFDVWGAGTTVTVSS VL: DVLMTQTPLSLPVSLGDQASISCRSSQSFVYSNGNTYLQWYLQKPGQSPKLLIYKVSNRFSGVPDRFSGSGSGTDFTLKISRVEAEDLGVYYCFQGSHVPPTFGAGTKLELKR
0.013 nM

State, in one line, measured EC50 of PR301306 (antibody, human IgG1, kappa, V domains shown, Mouse variable domains, expressed recombinantly with human IgG1 wildtype Fc; also called Series 3 mAb) VH: EVKLEESGGGLVQPGGSMKLSCVASGFTFSNYWMNWVRQSPEKGLEWVAEIRLKSNNYATLYAESVKGRFTISRDDSKSSVYLQMNNLRAEDTGIYYCTRGTLVYWGQGTLVTVSA VL: DIVLTQSPASLAVSLGQRATISCRASQSVSTSDYNYMHWYQQKPGQPPKLLIKYASNLESGVPARFSGSGSGTDFTLNIHPVEEEDTATYYCQHSWEIPYTFGGGTKLEIKR
0.094 nM
